This collection of values is drawn from the kinase profiling compilation of Christmann-Franck et al. (2016).

Subject Of Test: UniProt Q05655
Sequence (Q05655 whole entry, looked up): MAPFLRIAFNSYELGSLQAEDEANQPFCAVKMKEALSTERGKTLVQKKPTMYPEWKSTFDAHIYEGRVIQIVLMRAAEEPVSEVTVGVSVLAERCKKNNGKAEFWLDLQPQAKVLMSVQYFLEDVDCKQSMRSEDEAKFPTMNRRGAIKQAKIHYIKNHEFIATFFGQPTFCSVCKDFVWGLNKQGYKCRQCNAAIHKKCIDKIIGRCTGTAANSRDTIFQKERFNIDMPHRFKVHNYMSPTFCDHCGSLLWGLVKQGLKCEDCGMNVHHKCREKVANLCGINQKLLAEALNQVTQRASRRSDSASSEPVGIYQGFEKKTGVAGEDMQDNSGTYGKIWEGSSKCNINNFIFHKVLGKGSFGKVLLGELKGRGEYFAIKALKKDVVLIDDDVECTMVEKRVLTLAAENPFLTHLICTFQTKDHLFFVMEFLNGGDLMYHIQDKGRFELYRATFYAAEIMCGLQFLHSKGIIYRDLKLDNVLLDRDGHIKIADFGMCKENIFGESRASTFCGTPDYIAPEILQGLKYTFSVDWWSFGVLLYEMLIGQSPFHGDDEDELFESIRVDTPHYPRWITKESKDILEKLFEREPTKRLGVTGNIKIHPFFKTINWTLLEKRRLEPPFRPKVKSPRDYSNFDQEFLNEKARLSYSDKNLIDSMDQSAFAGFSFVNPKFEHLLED
Method Notes: split-luciferase competition binding
Test Parameters: compound 10.0 µM
# reported inhibition; entries follow
Readout Label: inhibition

{"Molecule": "N#CC(=C(\\N)Sc1ccccc1N)/C(C#N)=C(/N)Sc1ccccc1N", "Subject Of Test": "UniProt Q05655", "Readout Label": "inhibition", "Data Value": "0%"}
{"Molecule": "CC(C)[C@H](CO)Nc1nc(Nc2cccc(Cl)c2)c2ncn(C(C)C)c2n1", "Subject Of Test": "UniProt Q05655", "Readout Label": "inhibition", "Data Value": "0%"}
{"Molecule": "CC[C@@H](CO)Nc1nc(NCc2ccccc2)c2ncn(C(C)C)c2n1", "Subject Of Test": "UniProt Q05655", "Readout Label": "inhibition", "Data Value": "2%"}
{"Molecule": "COc1cc2nccc(Oc3ccc(NC(=O)Nc4ccc(F)cc4F)c(F)c3)c2cc1OC", "Subject Of Test": "UniProt Q05655", "Readout Label": "inhibition", "Data Value": "0%"}
{"Molecule": "O=S(=O)(c1cccc2cnccc12)N1CCCNCC1", "Subject Of Test": "UniProt Q05655", "Readout Label": "inhibition", "Data Value": "1%"}
{"Molecule": "CC(C)[C@H](CO)Nc1nc(Nc2ccc(C(=O)O)c(Cl)c2)c2ncn(C(C)C)c2n1", "Subject Of Test": "UniProt Q05655", "Readout Label": "inhibition", "Data Value": "5%"}
{"Molecule": "CC(C)(C)n1nc(-c2cccc3ccccc23)c2c(N)ncnc21", "Subject Of Test": "UniProt Q05655", "Readout Label": "inhibition", "Data Value": "0%"}
{"Molecule": "O=C(Nc1cc(C(F)(F)F)cc(C(F)(F)F)c1)c1cc(Cl)ccc1O", "Subject Of Test": "UniProt Q05655", "Readout Label": "inhibition", "Data Value": "0%"}
{"Molecule": "CC1=C(O)C(=O)[C@@H]2OC2C1=O (some centres undefined)", "Subject Of Test": "UniProt Q05655", "Readout Label": "inhibition", "Data Value": "0%"}
{"Molecule": "Cn1cc(C2=C(c3cn(CCCSC(=N)N)c4ccccc34)C(=O)NC2=O)c2ccccc21", "Subject Of Test": "UniProt Q05655", "Readout Label": "inhibition", "Data Value": "91%"}
{"Molecule": "Cc1ccc(-c2nn(C(C)(C)C)c3ncnc(N)c23)cc1", "Subject Of Test": "UniProt Q05655", "Readout Label": "inhibition", "Data Value": "0%"}
{"Molecule": "CN1CC[C@H](c2c(O)cc(O)c3c(=O)cc(-c4ccccc4Cl)oc23)[C@H](O)C1", "Subject Of Test": "UniProt Q05655", "Readout Label": "inhibition", "Data Value": "15%"}
{"Molecule": "CC(C)[C@H](CO)Nc1nc(Nc2cc(N)cc(Cl)c2)c2ncn(C(C)C)c2n1", "Subject Of Test": "UniProt Q05655", "Readout Label": "inhibition", "Data Value": "6%"}
{"Molecule": "c1ccc(-c2n[nH]cc2-c2ccnc3ccccc23)nc1", "Subject Of Test": "UniProt Q05655", "Readout Label": "inhibition", "Data Value": "0%"}
{"Molecule": "Cc1ccc(NC(=O)c2cccc(N(C)C)c2)cc1NC(=O)c1ccc(O)cc1", "Subject Of Test": "UniProt Q05655", "Readout Label": "inhibition", "Data Value": "1%"}
{"Molecule": "COc1cc2ncnc(Nc3ccc(Cl)cc3F)c2cc1OC", "Subject Of Test": "UniProt Q05655", "Readout Label": "inhibition", "Data Value": "0%"}
{"Molecule": "CC(C)N(CCC(=O)c1ccc2ccccc2c1)Cc1ccccc1", "Subject Of Test": "UniProt Q05655", "Readout Label": "inhibition", "Data Value": "0%"}
{"Molecule": "CS(=O)c1ccc(-c2nc(-c3ccc(F)cc3)c(-c3ccncc3)[nH]2)cc1 (centres undefined)", "Subject Of Test": "UniProt Q05655", "Readout Label": "inhibition", "Data Value": "0%"}
{"Molecule": "CC(=O)c1c(O)c(C)c(O)c(Cc2c(O)c3c(c(C(=O)/C=C/c4ccccc4)c2O)OC(C)(C)C=C3)c1O", "Subject Of Test": "UniProt Q05655", "Readout Label": "inhibition", "Data Value": "6%"}

###

# reported inhibition; entries follow
Subject Of Test: AKT1 (human)
Method Notes: split-luciferase competition binding
Test Parameters: compound 10.0 µM

{"Compound": "COc1cc2ncnc(Nc3ccc(Cl)cc3F)c2cc1OC", "inhibition (%)": 0}
{"Compound": "CC(=O)c1c(O)c(C)c(O)c(Cc2c(O)c3c(c(C(=O)/C=C/c4ccccc4)c2O)OC(C)(C)C=C3)c1O", "inhibition (%)": 24}
{"Compound": "CS(=O)c1ccc(-c2nc(-c3ccc(F)cc3)c(-c3ccncc3)[nH]2)cc1 (stereo not drawn)", "inhibition (%)": 11}
{"Compound": "CC(C)(C)n1nc(-c2cccc3ccccc23)c2c(N)ncnc21", "inhibition (%)": 18}
{"Compound": "O=S(=O)(c1cccc2c(O)nccc12)N1CCCNCC1", "inhibition (%)": 0}
{"Compound": "CS(=O)(=O)CCNCc1nc(-c2ccc3ncnc(Nc4ccc(OCc5cccc(F)c5)c(Cl)c4)c3c2)cs1", "inhibition (%)": 16}
{"Compound": "Cc1ccccc1C(=O)c1ccc(Nc2ccc(Br)cc2N)cc1Cl", "inhibition (%)": 0}
{"Compound": "CO[C@@H]1[C@H](N(C)C(=O)c2ccccc2)C[C@H]2O[C@]1(C)n1c3ccccc3c3c4c(c5c6ccccc6n2c5c31)C(=O)NC4", "inhibition (%)": 55}
{"Compound": "Cc1cc2nc3c(=O)[nH]c(=O)nc-3n(C)c2cc1C=O", "inhibition (%)": 24}
{"Compound": "Cc1ccc(NC(=O)c2cccc(N(C)C)c2)cc1NC(=O)c1ccc(O)cc1", "inhibition (%)": 0}
{"Compound": "O=C1c2ccccc2-c2n[nH]c3cccc1c23", "inhibition (%)": 0}
{"Compound": "N#CC(=C(\\N)Sc1ccccc1N)/C(C#N)=C(/N)Sc1ccccc1N", "inhibition (%)": 0}
{"Compound": "N#C/C(=C\\c1ccc(O)c(O)c1)C(=O)NCc1ccccc1", "inhibition (%)": 0}
{"Compound": "NC(=O)c1ccc(-c2nc(-c3ccccn3)c(-c3ccc4c(c3)OCO4)[nH]2)cc1", "inhibition (%)": 1}
{"Compound": "NC(=O)c1sc(-c2ccsc2)cc1N", "inhibition (%)": 0}
{"Compound": "CCN(CC)CCNC(=O)c1c(C)[nH]c(/C=C2\\C(=O)Nc3ccc(F)cc32)c1C", "inhibition (%)": 28}
{"Compound": "O=S(=O)(c1cccc2cnccc12)N1CCCNCC1", "inhibition (%)": 0}
{"Compound": "Cc1cc(F)c(Nc2ncnc3cc(OCc4ccccc4)ccc23)cc1O", "inhibition (%)": 0}
{"Compound": "O=c1cc(N2CCOCC2)nc2c3ccccc3ccn12", "inhibition (%)": 0}
{"Compound": "Cc1cc(I)ccc1Nc1c(C(=O)NOCC2CC2)cc(F)c(F)c1F", "inhibition (%)": 0}
{"Compound": "CC1=C(O)C(=O)[C@@H]2OC2C1=O (stereo partly drawn)", "inhibition (%)": 0}
{"Compound": "COc1cc(CC2C(=O)OC[C@@H]2Cc2ccc(OC)c(OC)c2)ccc1O (stereo partly drawn)", "inhibition (%)": 0}
{"Compound": "C=CC(=O)c1ccc2ccccc2c1", "inhibition (%)": 0}
{"Compound": "Cc1ccc(-c2nn(C(C)(C)C)c3ncnc(N)c23)cc1", "inhibition (%)": 2}
{"Compound": "N#C/C(=C\\c1ccc(O)c(O)c1)C(N)=S", "inhibition (%)": 0}
{"Compound": "Brc1c(Br)c(Br)c2[nH]nnc2c1Br", "inhibition (%)": 0}
{"Compound": "COc1nccc(-c2c(-c3ccc(F)cc3)ncn2[C@H]2CC[C@H](O)CC2)n1", "inhibition (%)": 0}
{"Compound": "O=C(Nc1cc(C(F)(F)F)cc(C(F)(F)F)c1)c1cc(Cl)ccc1O", "inhibition (%)": 0}
{"Compound": "CC(C)[C@H](CO)Nc1nc(Nc2cccc(Cl)c2)c2ncn(C(C)C)c2n1", "inhibition (%)": 0}
{"Compound": "COc1cc2ncn(-c3cc(OCc4ccccc4C(F)(F)F)c(C(N)=O)s3)c2cc1OC", "inhibition (%)": 12}
{"Compound": "Oc1ccc(-c2nc(-c3ccc(F)cc3)c(-c3ccncc3)[nH]2)cc1", "inhibition (%)": 5}
{"Compound": "COc1ccc(Cl)cc1NC(=O)Nc1cc(C)nc2ccccc12", "inhibition (%)": 0}
{"Compound": "CC(C)N(CCC(=O)c1ccc2ccccc2c1)Cc1ccccc1", "inhibition (%)": 0}
{"Compound": "Nc1ncnc2[nH]nc(Nc3ccc(F)cc3)c12", "inhibition (%)": 3}
{"Compound": "CN1CC[C@H](c2c(O)cc(O)c3c(=O)cc(-c4ccccc4Cl)oc23)[C@H](O)C1", "inhibition (%)": 1}
{"Compound": "O=c1cc(N2CCOCC2)oc2c1ccc1ccccc12", "inhibition (%)": 0}
{"Compound": "CCN(CC)CCCCN1c2ccccc2Oc2ccc(Cl)cc21", "inhibition (%)": 0}
{"Compound": "Cn1cc(C2=C(c3ccc(Cl)cc3Cl)C(=O)NC2=O)c2ccccc21", "inhibition (%)": 3}
